// data source = patent US20110117055A1

Test system: HCV2aChLuc virus
Assay: In vitro HCVcc entry assay: HCV2aChLuc virus infection of Huh7 cells, Renilla luciferase read-out
Format: cell-based, HCV genotype 2a
Details: Hepatitis C virus, Huh-7, read-out: Activity class (IC50), tested according to the method of Example 3
pIC50: −log10 of the molar value.
endpoint-label: pIC50

>>> result("Cc1ccc(-n2nc(C(C)(C)C)cc2NC(=O)C(=O)c2ccc(CCN3CCNCC3)c3ccccc23)cc1")
"< 6.30"
>>> result("COc1c(NC(=O)CCCCC2SCC3NC(=O)NC32)cc(C(C)(C)C)cc1NC(=O)C(=O)c1ccc(OCCN2CCOCC2)c2ccccc12 (stereo not shown)")
"6.30 to 8.30"
>>> result("Cc1ccc(-n2nc(C(C)(C)C)cc2NC(=O)C(=O)c2ccc(OCCN3CC[S+]([O-])CC3)c3ccccc23)cc1")
"< 6.30"
>>> result("Cc1cc(-n2nc(C(C)(C)C)cc2NC(=O)C(=O)c2ccc(OCCN3CCOCC3)c3ccccc23)ccc1F")
"< 6.30"
>>> result("COc1c(NC(=O)C(=O)c2ccc(OCCN3CC(C)OC(C)C3)c3ccccc23)cc(C(C)(C)C)cc1NS(C)(=O)=O (stereo not shown)")
"6.30 to 8.30"
>>> result("COc1ccc(C(C)(C)C)cc1NC(=O)C(=O)c1ccc(Nc2ccnc(N3CCOCC3)n2)c2ccccc12")
"< 6.30"
>>> result("COc1c(NC(=O)C(=O)c2ccc(OCC(N)=O)c3ccccc23)cc(C(C)(C)C)cc1NS(C)(=O)=O")
"< 6.30"

---

# Lookup of reported IC50 keyed by entry
Tested on: HCV2aChLuc virus
Assay: In vitro HCVcc entry assay: HCV2aChLuc virus infection of Huh7 cells, Renilla luciferase read-out
Format: cell-based, HCV genotype 2a
Conditions: Hepatitis C virus, Huh-7, read-out: Activity class (IC50), tested according to the method of Example 3
endpoint-label: IC50

>>> result("COc1c(NC(=O)C(=O)c2ccc(OCCN3CCOCC3)c3ccccc23)cc(C(C)(C)C)cc1C(=O)N1CCOCC1 [Compound 24]")
"5 to 500 nM"
>>> result("COc1c(NC(=O)C(=O)c2ccc(OCCN(CCO)CCO)c3ccccc23)cc(C(C)(C)C)cc1NS(C)(=O)=O [Compound 3]")
"< 5 nM"
>>> result("COc1ccc(C(C)(C)C)cc1NC(=O)C(=O)c1ccc(OC)c2ccccc12 [Compound 14]")
"< 5 nM"
>>> result("CNc1ccc(-c2ccc(C(=O)C(=O)Nc3cc(C(C)(C)C)cc(C(N)=O)c3OC)c3ccccc23)cn1 [Compound 137]")
"< 5 nM"
>>> result("COc1c(NC(=O)C(=O)c2ccc(OCCN3CCOCC3)c3ccccc23)cc(C)cc1NS(C)(=O)=O [Compound 13]")
"5 to 500 nM"
>>> result("Cc1cc(C(C)(C)C)cc(NC(=O)C(=O)c2ccc(OCCN3CCOCC3)c3ccccc23)c1O [Compound 30]")
"> 500 nM"
>>> result("CNc1ccc(-c2ccc(C(=O)C(=O)Nc3cc(C(C)(C)C)cc(C(=O)NC4CC4)c3OC)c3ccccc23)cn1 [Compound 130]")
"> 500 nM"
>>> result("CCN(CC)CCOc1ccc(C(=O)C(=O)Nc2cc(C(C)(C)C)cc(NS(C)(=O)=O)c2OC)c2ccccc12 [Compound 79]")
"> 500 nM"
>>> result("COc1c(NC(=O)C(=O)c2ccc(-c3ccc(N(C)C)nc3)c3ccccc23)cc(C(C)(C)C)cc1NS(C)(=O)=O [Compound 125]")
"> 500 nM"
>>> result("COc1c(NC(=O)C(=O)c2ccc(OCCN3CCOCC3)c3ccccc23)cc(C(C)(C)C)cc1NS(C)(=O)=O [Compound 5]")
"< 5 nM"
>>> result("COc1c(NC(=O)C(=O)c2ccc(OC)c3ccccc23)cc(C(C)(C)C)cc1NS(C)(=O)=O [Compound 75]")
"5 to 500 nM"
>>> result("O=C(Nc1n[nH]c2ccccc12)C(=O)c1ccc(OCCN2CCOCC2)c2ccccc12 [Compound 113]")
"> 500 nM"
>>> result("COc1c(Br)cc(C(C)(C)C)cc1NC(=O)C(=O)c1ccc(OCCN2CCOCC2)c2ccccc12 [Compound 89]")
"5 to 500 nM"
>>> result("CC(C)(C)c1cc(C#N)cc(NC(=O)C(=O)c2ccc(Br)c3ccccc23)c1 [Compound 88]")
"> 500 nM"
>>> result("COc1c(NC(=O)C(=O)c2ccc(OCCN3CCOCC3)c3ccccc23)cc(C(C)(C)C)cc1-c1nnn[nH]1 [Compound 91]")
"> 500 nM"
>>> result("O=C(NC1CCc2ccccc21)C(=O)c1ccc(OCCN2CCOCC2)c2ccccc12 (stereo not shown) [Compound 115]")
"> 500 nM"
>>> result("CC(=O)n1nc(C(C)(C)C)cc1NC(=O)C(=O)c1ccc(OCCN2CCOCC2)c2ccccc12 [Compound 46]")
"> 500 nM"
>>> result("COc1c(NC(=O)C(=O)c2ccc(OCCN3CCOCC3)c3ccccc23)cc(C(C)(C)C)cc1C(=O)N1CCN(CC2CC2)CC1 [Compound 100]")
"> 500 nM"
>>> result("COc1ccc(C(C)(C)C)cc1NC(=O)C(=O)c1ccc(OC(C)C)c2ccccc12 [Compound 20]")
"< 5 nM"
>>> result("COc1c(NC(=O)C(=O)c2ccc(OCCN3CC(C)(C)OC(C)(C)C3)c3ccccc23)cc(C(C)(C)C)cc1NS(C)(=O)=O [Compound 96]")
"5 to 500 nM"
>>> result("Cc1ccc(C(C)C)cc1NC(=O)C(=O)c1ccc(OCCN2CCOCC2)c2ccccc12 [Compound 62]")
"5 to 500 nM"
>>> result("COc1c(NC(=O)C(=O)c2ccc(OC)c3ccccc23)cc(C(C)(C)C)cc1C(=O)NCC1CC1 [Compound 17]")
"< 5 nM"

---

Tested on: HCV2aChLuc virus
Test: In vitro HCVcc entry assay: HCV2aChLuc virus infection of Huh7 cells, Renilla luciferase read-out
Assay type: cell-based, HCV genotype 2a
Settings: Hepatitis C virus, Huh-7, read-out: Activity class (IC50), tested according to the method of Example 3
pIC50: −log10 of the molar value.
# Lookup of reported pIC50 keyed by entry
endpoint-label: pIC50

>>> result("CC(C)Oc1ccc(C(C)(C)C)cc1NC(=O)C(=O)c1ccc(OCCN2CCOCC2)c2ccccc12 [Compound 42]")
"< 6.30"
>>> result("CC(C)(C)c1cc(CN2CCOCC2)c(O)c(NC(=O)C(=O)c2ccc(OCCN3CCOCC3)c3ccccc23)c1 [Compound 29]")
"< 6.30"
>>> result("CCCS(=O)(=O)Nc1cc(C(C)(C)C)cc(NC(=O)C(=O)c2ccc(OC)c3ccccc23)c1OC [Compound 78]")
"6.30 to 8.30"
>>> result("COc1c(NC(=O)C(=O)c2ccc(OCCN3CCOCC3)c3ccccc23)cc(C(C)(C)C)cc1S(=O)(=O)N(C)C [Compound 2]")
"> 8.30"

---

# Lookup of reported CC50 keyed by entry
Assay: Cytotoxicity of anti-HCV compounds (CC50, Table 4)
Conditions: human, Huh7.5.1 cells
endpoint-label: CC50

>>> result("COc1c(NC(=O)C(=O)c2ccc(OCCN3CCOCC3)c3ccccc23)cc(C(C)(C)C)cc1NS(C)(=O)=O")
"> 100 µM"
>>> result("COc1ccc2c(O[C@@H]3C[C@H]4C(=O)N[C@]5(C(=O)O)C[C@H]5/C=C\\CCCCC[C@H](NC(=O)OC5CCCC5)C(=O)N4C3)cc(-c3csc(NC(C)C)n3)nc2c1 [BILN2061, reference compound]")
"35 µM"
>>> result("C[C@@]1(O)[C@H](O)[C@@H](CO)O[C@H]1n1cnc2c(N)ncnc21 [2′-C-methyladenosine, reference compound]")
"> 100 µM"

---

Tested on: HCV2aChLuc virus
Assay: In vitro HCVcc entry assay: HCV2aChLuc virus infection of Huh7 cells, Renilla luciferase read-out
Format: cell-based, HCV genotype 2a
Conditions: Hepatitis C virus, Huh-7, read-out: Activity class (IC50), tested according to the method of Example 3
endpoint-label: IC50

>>> result("CC(C)(C)c1cc(C(F)(F)F)nc(NC(=O)C(=O)c2ccc(OCCN3CCOCC3)c3ccccc23)n1")
"> 0.5 µM"
>>> result("COc1ccc(I)cc1NC(=O)C(=O)c1ccc(OCCN2CCOCC2)c2ccccc12")
"0.005 to 0.5 µM"
>>> result("COc1c(NC(=O)C(=O)c2ccc(OCCN3CCOCC3)c3ccccc23)cc(C(C)(C)C)cc1C(=O)N1CC2CCC(C1)N2")
"> 0.5 µM"
>>> result("O=C(Nc1cccc2c1CCC2)C(=O)c1ccc(OCCN2CCOCC2)c2ccccc12")
"0.005 to 0.5 µM"
>>> result("COc1c(NC(=O)C(=O)c2ccc(OCCN3CCOCC3)c3ccccc23)cc(C(C)(C)C)cc1C(=O)Nc1ccccn1")
"< 0.005 µM"
>>> result("CC(C)(C)c1ccc(O)c(NC(=O)C(=O)c2ccc(OCCN3CCOCC3)c3ccccc23)c1")
"0.005 to 0.5 µM"
>>> result("COc1c(NC(=O)C(=O)c2ccc(OCCCS(=O)(=O)N(C)C)c3ccccc23)cc(C(C)(C)C)cc1NS(C)(=O)=O")
"0.005 to 0.5 µM"
